- Tested on: Escherichia coli TOP10
- assay: shrunken log2 fold change of peptide-encoding DNA abundance (4.5 h post-induction vs induction); higher = less antimicrobial activity (less host growth inhibition)
- conditions used: time post-induction: 4.5 h; library: site-saturation at positions 5, 18, 19, 20
# shrunken log2 fold change per record follows
measure name: shrunken log2 fold change

sequence chain | reported
RRIRNRPPRLPRPRPRPCGYPRP | 0.019
RRIRQRPPRLPRPRPRPTRTPRP | 1.65
RRIRIRPPRLPRPRPRPVWWPRP | 0.0779
RRIRMRPPRLPRPRPRPHWPPRP | 1.1

----------
# shrunken log2 fold change per record follows
- Tested on: Escherichia coli TOP10;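 further: peptides expressed intracellularly from a pBAD plasmid library in pooled LB shake-flask culture, induced with 0.3% L-arabinose, DNA abundance read by NGS, three biological replicates, DESeq2 with apeglm shrinkage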
- assay: shrunken log2 fold change of peptide-encoding DNA abundance (4.5 h post-induction vs induction); higher = less antimicrobial activity (less host growth inhibition)
- conditions used: time post-induction: 4.5 h; library: site-saturation at positions 5, 18, 19, 20
measure name: shrunken log2 fold change

sequence chain | test system | measure name | reported
RRIRHRPPRLPRPRPRPSKYPRP | Escherichia coli TOP10 | shrunken log2 fold change | -0.776
RRIRNRPPRLPRPRPRPTDNPRP | Escherichia coli TOP10 | shrunken log2 fold change | -0.353
RRIRCRPPRLPRPRPRPDKFPRP | Escherichia coli TOP10 | shrunken log2 fold change | -0.296
RRIRTRPPRLPRPRPRPMEDPRP | Escherichia coli TOP10 | shrunken log2 fold change | -0.00968
RRIRARPPRLPRPRPRPNRDPRP | Escherichia coli TOP10 | shrunken log2 fold change | -0.183
RRIRDRPPRLPRPRPRPWLFPRP | Escherichia coli TOP10 | shrunken log2 fold change | 0.0977
RRIRHRPPRLPRPRPRPNNIPRP | Escherichia coli TOP10 | shrunken log2 fold change | -1.2
RRIRYRPPRLPRPRPRPHCIPRP | Escherichia coli TOP10 | shrunken log2 fold change | -0.0129
RRIRFRPPRLPRPRPRPMAQPRP | Escherichia coli TOP10 | shrunken log2 fold change | -0.337
RRIRVRPPRLPRPRPRPPTIPRP | Escherichia coli TOP10 | shrunken log2 fold change | 0.0741
RRIRPRPPRLPRPRPRPIRPPRP | Escherichia coli TOP10 | shrunken log2 fold change | 0.184
RRIRDRPPRLPRPRPRPRTIPRP | Escherichia coli TOP10 | shrunken log2 fold change | -0.018
RRIRRRPPRLPRPRPRPWTMPRP | Escherichia coli TOP10 | shrunken log2 fold change | -0.257
